Test system: UACC-257
Experiment: NCI tumour cell line growth inhibition, 48 h
Calls of active or inactive are those of the source. Rule as the data show it: active = GI50 up to about 1.1 µM and inactive = higher.
Catalogue of molecules with associated GI50
observation_type: GI50

> print(dat)
                                   molecule  observation.type               result
1           COC(=O)c1ccc(NCc2cc(O)ccc2O)cc1              GI50   14.4 µM (inactive)
2        O=C1C=C(Nc2ccc(Br)cc2)c2ccccc2C1=O              GI50   13.5 µM (inactive)
3  O=C1CCC2(CC1CC[S+]([O-])c1ccccc1)OCCO2 (stereo not drawn)              GI50  > 100 µM (inactive)
4          COc1ccc(-n2cnc3c(N)nc(N)nc32)cc1              GI50  > 100 µM (inactive)
5  CCCCN(CCCC)CC(C(C)=O)C(c1ccccc1)c1c(O)c2ccccc2oc1=O (stereo not drawn)              GI50  > 100 µM (inactive)
6  CC1(C)OCC(C2OC(On3nnc4ccc(Cl)cc43)C3OC(C)(C)OC23)O1 (stereo not drawn)              GI50  > 100 µM (inactive)
7  O=c1[c-](-c2ccccc2)[se]c(-c2ccccc2)[n+]1-c1ccccc1              GI50   12.8 µM (inactive)
8  CN1C(=O)C2C(=O)N(Cc3ccccc3)CC(=O)N2c2cccnc21 (stereo not drawn)              GI50  > 100 µM (inactive)

Taken from ChEMBL document CHEMBL1201862.
